Data provenance: ChEMBL document CHEMBL1151311

# Assay text: Cytotoxicity against BALB/c mouse peritoneal macrophages assessed as survival at 5 ug/ml
# Assay type: cell-based, Macrophage
# Conditions: read-out: Activity
Endpoint name: viability at 5 ug/ml (%)
Express the result in % but write the number alone.

Short answer for C[C@H]1CC[C@H]([C@@H](C)[C@H]2CC[C@H]3[C@@H]4CC=C5C[C@@H](N)CC[C@]5(C)[C@H]4CC[C@]23C)NC1 : viability at 5 ug/ml was 0

* * *

# Test system: Plasmodium falciparum
# Assay text: Antimalarial activity against chloroquine-resistant Plasmodium falciparum Indo after 24 hrs
# Type: functional, organism-based
Endpoint name: pIC50
Friendly reminder that pIC50 comes from taking -log10 of the concentration in mol/L.

Short answer for C[C@H]1CC[C@H]([C@@H](C)[C@H]2CC[C@H]3[C@@H]4CC=C5C[C@@H](N)CC[C@]5(C)[C@H]4CC[C@]23C)NC1 : pIC50 was 6.75
